target: RARa:RXRa (Homo sapiens, UniProt P10276;P19793 full;full); experiment: no ligand; PBM; 270 nM : 90 nM RXRa; PBS pH 7.4, 2% milk, 0.02% Triton X-100, 1 mM DTT, BSA, 0.4 mg/ml salmon testes DNA; details: tags: His kept;His cleaved; copies: 1;1; label: surface-attached array probe
Sequence (P10276 whole entry, chain 1 of 2): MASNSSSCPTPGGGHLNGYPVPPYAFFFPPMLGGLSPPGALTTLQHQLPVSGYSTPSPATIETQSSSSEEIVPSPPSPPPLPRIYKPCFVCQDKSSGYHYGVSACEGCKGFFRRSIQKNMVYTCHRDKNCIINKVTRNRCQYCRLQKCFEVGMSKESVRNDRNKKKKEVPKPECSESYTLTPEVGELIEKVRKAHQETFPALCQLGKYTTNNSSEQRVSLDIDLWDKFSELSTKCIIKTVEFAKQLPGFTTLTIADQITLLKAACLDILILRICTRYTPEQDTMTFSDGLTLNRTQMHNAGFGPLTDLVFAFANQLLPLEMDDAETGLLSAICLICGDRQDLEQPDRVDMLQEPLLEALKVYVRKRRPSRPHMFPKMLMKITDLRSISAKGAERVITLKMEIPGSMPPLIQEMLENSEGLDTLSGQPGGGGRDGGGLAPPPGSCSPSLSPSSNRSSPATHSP
Sequence (P19793 whole entry, chain 2 of 2): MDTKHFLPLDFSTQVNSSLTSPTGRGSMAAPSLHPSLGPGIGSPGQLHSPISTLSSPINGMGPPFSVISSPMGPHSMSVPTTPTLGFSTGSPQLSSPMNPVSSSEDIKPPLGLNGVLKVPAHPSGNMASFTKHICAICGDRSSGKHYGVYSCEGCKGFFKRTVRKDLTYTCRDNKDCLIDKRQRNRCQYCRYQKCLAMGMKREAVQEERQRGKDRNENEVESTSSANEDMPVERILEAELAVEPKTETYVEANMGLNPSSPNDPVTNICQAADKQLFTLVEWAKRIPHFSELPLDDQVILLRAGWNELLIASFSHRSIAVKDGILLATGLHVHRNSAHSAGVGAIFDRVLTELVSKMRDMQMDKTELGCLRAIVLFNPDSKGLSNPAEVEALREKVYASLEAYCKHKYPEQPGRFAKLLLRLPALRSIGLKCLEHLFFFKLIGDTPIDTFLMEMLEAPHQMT
recorded_endpoint: binding signal

Looking up NRC3_random_hg19_59_o1 (dsDNA) DNA 1: GCCAGTTCAAGACCAGCCTGGCCAACATGGTGAAACGCGATTGACAGCGTAGAATGAAGG DNA 2: CCTTCATTCTACGCTGTCAATCGCGTTTCACCATGTTGGCCAGGCTGGTCTTGAACTGGC , I found its binding signal recorded as -0 PBM z-score against 500 random probes
